The reported numbers originate from paper PMC12344758.

Target: MAO-A (Homo sapiens, UniProt P21397)
Construct: purchased Merck MAK295
Test: Monoamine Oxidase-A Inhibitor Screening Kit (Merck, MAK295), fluorometric assay
Assay type: biochemical
Conditions: concentration 10 uM
Readout Label: inhibition at 10 µM (%)

Problem: Entry CCc1ccc(Nc2ncc3c(n2)CC(C)CC3=O)cc1 (centres unmarked) [MolPort-000-511-281] , system MAO-A (Homo sapiens, UniProt P21397): what inhibition at 10 µM was measured?
Solution: 0

Problem: Entry COc1ccc(C2=NN(C(C)=O)C(c3ccccc3)C2)c(O)c1 (centres unmarked) [MolPort-000-773-355] , system MAO-A (Homo sapiens, UniProt P21397): what inhibition at 10 µM was measured?
Solution: 0

Problem: Entry CC(=O)Nc1ccc2c(c1)-c1ccccc1C2=O [MolPort-001-824-101] , system MAO-A (Homo sapiens, UniProt P21397): what inhibition at 10 µM was measured?
Solution: 93.7

Problem: Entry CC(=O)NCC1CN(c2ccc(N3CCOCC3)c(F)c2)C(=O)O1 (centres unmarked) [MolPort-002-744-025] , system MAO-A (Homo sapiens, UniProt P21397): what inhibition at 10 µM was measured?
Solution: 0

Problem: Entry Cc1cc(=O)oc2c(C)c(OCc3nnc(S)n3-c3ccc(Br)cc3)ccc12 [MolPort-002-847-536] , system MAO-A (Homo sapiens, UniProt P21397): what inhibition at 10 µM was measured?
Solution: 17.7

(A) Cc1cc(=O)oc2cc(OCC(=O)N/N=C/c3ccccc3)ccc12 [MolPort-002-548-000]
(B) Cc1c(-c2ccccc2)c(=O)oc2cc(OS(=O)(=O)c3ccc(Br)cc3)ccc12 [MolPort-000-479-802]
Problem: # query: argmin of inhibition at 10 µM over A and B Pick one and reply with its label.
Solution: A

* * *

Target: MAO-A (Homo sapiens, UniProt P21397)
Construct: purchased Merck MAK295
Sequence (P21397 1-527): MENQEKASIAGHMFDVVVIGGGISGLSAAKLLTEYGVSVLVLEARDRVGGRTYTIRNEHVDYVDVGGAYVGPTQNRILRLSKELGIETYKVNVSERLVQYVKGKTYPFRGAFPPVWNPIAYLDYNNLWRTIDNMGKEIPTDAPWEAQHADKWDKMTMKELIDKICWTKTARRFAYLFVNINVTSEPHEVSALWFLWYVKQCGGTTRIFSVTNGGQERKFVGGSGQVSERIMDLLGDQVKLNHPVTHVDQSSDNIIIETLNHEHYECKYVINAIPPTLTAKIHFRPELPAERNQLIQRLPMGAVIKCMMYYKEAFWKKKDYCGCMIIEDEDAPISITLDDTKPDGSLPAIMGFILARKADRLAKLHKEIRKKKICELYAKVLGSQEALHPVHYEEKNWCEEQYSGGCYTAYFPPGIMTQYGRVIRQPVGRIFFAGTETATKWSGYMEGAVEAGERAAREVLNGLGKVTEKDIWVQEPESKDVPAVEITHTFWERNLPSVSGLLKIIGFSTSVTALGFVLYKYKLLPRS
Assay: Monoamine Oxidase-A Inhibitor Screening Kit (Merck, MAK295), fluorometric assay
Assay type: biochemical
Details: concentration 10 uM
Readout Label: inhibition at 10 µM (%)

Problem: Requested read-out: inhibition at 10 µM. Entry: O=C(Cn1c(=O)oc2ccccc21)Nc1nnc(SCc2ccccc2)s1
Solution: 0

Problem: Requested read-out: inhibition at 10 µM. Entry: Fc1ccc(-c2ccc3c(c2)[nH]c2ccncc23)cn1
Solution: 16.5

Problem: Requested read-out: inhibition at 10 µM. Entry: Clc1ccc(/C=N/c2ccc3[nH]ncc3c2)c(Cl)c1
Solution: 26.1

Problem: Requested read-out: inhibition at 10 µM. Entry: Cc1nnc2c(Cc3ccccc3)nc3ccccc3n12
Solution: 0

Problem: Requested read-out: inhibition at 10 µM. Entry: COc1ccc(C2SCC(=O)N2NC(=O)COc2ccc3c(C)cc(=O)oc3c2)cc1 (stereo not shown)
Solution: 0

(a) Cc1ccc(/C=N/Nc2nc3ccccc3nc2Cc2ccccc2)cc1
(b) Cc1csc(N/N=C/c2cc(Cl)ccc2Cl)n1
Problem: inhibition at 10 µM comparison. Which is larger, a or b ? Pick one and reply with its label.
Solution: b
(b: 24.3%, a: 0%)
